Here's what we have: pIC50 numbers for oCOX-1 (Ovis aries, UniProt P05979).
Conceptually, pIC50 converts a concentration in mol/L into minus its log10.

compound | pIC50
COc1ccc2c(c1)c(CC(=O)NS(=O)(=O)C(F)(F)F)cn2C(=O)c1ccc(Cl)cc1 [Compound 27] | 5.66
COc1ccc2c(c1)c1c(n2C(=O)c2ccc(Cl)cc2)CCC(C(=O)O)C1 (centres unmarked) [Compound 61] | 6.12

Challenge: Find the recorded pIC50 belonging to COc1ccc2c(c1)c(CCC(=O)O)c(C)n2C(=O)c1ccc(Cl)cc1 [Compound 16] and report it.
Response given: 4.31

---

tested on: ovine COX-1 (Ovis aries, UniProt P05979)
Sequence (P05979 25-600): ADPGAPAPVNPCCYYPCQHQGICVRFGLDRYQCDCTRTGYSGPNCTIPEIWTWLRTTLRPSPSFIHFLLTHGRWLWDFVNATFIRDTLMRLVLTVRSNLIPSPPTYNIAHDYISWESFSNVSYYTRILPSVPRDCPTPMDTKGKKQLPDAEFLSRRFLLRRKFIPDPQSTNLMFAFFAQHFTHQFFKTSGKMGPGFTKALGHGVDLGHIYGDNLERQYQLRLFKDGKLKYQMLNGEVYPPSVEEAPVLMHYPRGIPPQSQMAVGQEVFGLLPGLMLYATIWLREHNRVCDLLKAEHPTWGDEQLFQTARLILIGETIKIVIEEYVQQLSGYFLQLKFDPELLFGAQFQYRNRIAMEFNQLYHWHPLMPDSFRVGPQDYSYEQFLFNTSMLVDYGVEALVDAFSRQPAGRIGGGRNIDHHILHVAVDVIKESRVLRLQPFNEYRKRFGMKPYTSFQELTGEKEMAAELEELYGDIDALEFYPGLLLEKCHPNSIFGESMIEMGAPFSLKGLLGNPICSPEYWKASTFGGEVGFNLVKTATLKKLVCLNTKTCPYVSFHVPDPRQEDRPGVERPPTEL
test description: discontinuous 14C-AA TLC-based COX assay, COX-1
endpoint label: IC50 (µM)
Answer format: numeric, µM implied, no suffix.

Challenge: Given the compound COc1ccc2c(c1)c1c(n2C(=O)c2ccc(Cl)cc2)CC(C(=O)O)CC1 (stereo not shown) [Compound 64] , what is its reported IC50?
Response given: 2.4
